// data source = the supplement of paper PMC9170038

Tested on: MS2 coat protein
Assay: apparent KD of MS2 coat protein; higher = weaker reporter binding
Settings: Eterna round: R107; input ligand: none
outcomeMeasure: apparent KD of MS2 coat protein

{"chainSequence": "GCACGACAUGAGGAUCACCCAUGUGCAGAUACCAGUAGGAUAUCCUACCCUUGGCAGCUGAGUAGAUCUGGAGGACUAUAGGUAA [Same State Theophylline A GF9]", "experimentalTarget": "MS2 coat protein", "outcomeMeasure": "apparent KD of MS2 coat protein", "result": "17.9 nM"}
{"chainSequence": "UGGUACAUGAGGAUCACCCAUGUUCCAGAUACCAGUGUCCCGCUGCACCCUUGGCAGCUGGUGGUACAUGAGGAUCACCCAUGUG [Exclusion Theophylline A GF11]", "experimentalTarget": "MS2 coat protein", "outcomeMeasure": "apparent KD of MS2 coat protein", "result": "34.1 nM"}
{"chainSequence": "AAAAUCCUACCUGAGGAUCACCCGGGUGAAGGAGCGCCCGAAAGGGCAGGUAGGUCGCACCUGAGGAUCACCCUGGUAAACCUAA [ArgEX 23 #DoubleMS2 #OpenEnded]", "experimentalTarget": "MS2 coat protein", "outcomeMeasure": "apparent KD of MS2 coat protein", "result": "172 nM"}
{"chainSequence": "ACAUGAGGAUCACCCAUGUAAUGGCACGAUACCAGCUGAUCCCGUGGCCCUUGGCAGCGUCCGGUGUGGUCCGCCGGGUUGGACC [HHHMULLIN]", "experimentalTarget": "MS2 coat protein", "outcomeMeasure": "apparent KD of MS2 coat protein", "result": "26 nM"}
{"chainSequence": "ACAUUUAACUGAAGGAGCGUGAUAUGUACAUGAGGAUCACCCAUGUCUUACAUGUGAUAUUCACAGGUAGGUCGCAGACUAAUGA [JR_ExcArginiB_Sub004]", "experimentalTarget": "MS2 coat protein", "outcomeMeasure": "apparent KD of MS2 coat protein", "result": "18.8 nM"}
{"chainSequence": "ACAUGAGGAUCACCCAUGUCAGGGCACGAUACCAGCUGAUCCGAUGGCCCUUGGCAGCGUUACGUGUGGUCAUGAGGAUCACCCG [pjbmullin]", "experimentalTarget": "MS2 coat protein", "outcomeMeasure": "apparent KD of MS2 coat protein", "result": "59.3 nM"}
{"chainSequence": "CGUCGAGACUGAAGGAGCGAGAUAACAACAUUGGGUCUCAACACAUGAGGAUCACCCAUGUCUCAGGUAGGUCGCGGUGUCACCG [Exclusion Arginine B GF21]", "experimentalTarget": "MS2 coat protein", "outcomeMeasure": "apparent KD of MS2 coat protein", "result": "195 nM"}
{"chainSequence": "ACAUGAGGAUCACCCAUGUGAAGGCACGAUACCAGCUGAUCCCGUGGCCCUUGGCAGCGUCCGGUUUGGUCCGGCGGAUGGGACG [vvamullin]", "experimentalTarget": "MS2 coat protein", "outcomeMeasure": "apparent KD of MS2 coat protein", "result": "18.8 nM"}
{"chainSequence": "GCUGUUGCGGUGAGGUAUCCGGCUGUGGAAGGAGCGCGGAAGGCCGCAGGUAGGUCGCCACAUGAGGAUCACCCAUGUCGAUAUA [Aninati]", "experimentalTarget": "MS2 coat protein", "outcomeMeasure": "apparent KD of MS2 coat protein", "result": "16.9 nM"}
{"chainSequence": "UAUCCACAUGAGGAUCACCCAUGUUAGGAAGGAGCGGUGAAUGAACCAGGUAGGUCGCCUAGCUGAGGACCGUCGAUGGAUUCGU [Exclusion - Arginine A (Freestyle 16)]", "experimentalTarget": "MS2 coat protein", "outcomeMeasure": "apparent KD of MS2 coat protein", "result": "27.3 nM"}
{"chainSequence": "GGAUAGGACACGGCCGCCACUGCCUAGGAUACUAGCAACAUUUGGGUACAAGAGGAUCACCCUUGUAGGACCGGGUGUCCUAUCG", "experimentalTarget": "MS2 coat protein", "outcomeMeasure": "apparent KD of MS2 coat protein", "result": "25 nM"}
{"chainSequence": "GGGCAAGAGGGAAGGAGCGUCAGCUGAGUCACAUGAGGAUCACCCAUGUCGCACAUAGUGUGACAGGUAGGUCGCCCUCUACCCU [Esceinan]", "experimentalTarget": "MS2 coat protein", "outcomeMeasure": "apparent KD of MS2 coat protein", "result": "124 nM"}
